src = patent EP0238982B1

Test: Hydrolytic rate constants in aqueous buffered solution at pH 12, 37°C (HPLC)
Assay type: physicochemical
Conditions: aqueous buffer; aqueous solution pH 12, 37°C; average of three runs; read-out: t 1/2 (Min) AQUEOUS SOLN, pH 12, 37°C
# log10(half-life) per record follows
Hello, just confirming the data are log10 of half-life with units of min.

Worked set:
# molecule, log10(half-life)
measured = [
    ("C[N+]1(C)C2CCC1CC(OC(=O)C(C(=O)OC1CCCCC1)c1ccccc1)C2 (racemic)", 0.11),
    ("CCOC(=O)C(C(=O)OC1CC2CCC(C1)[N+]2(C)C)c1ccccc1 (racemic)", -0.07),
    ("CN1C2CCC1CC(OC(=O)C(C(=O)OC1CCCCC1)c1ccccc1)C2 (racemic)", 2.26),
    ("CC(C)OC(=O)C(C(=O)OC1CC2CCC(C1)N2C)c1ccccc1 (racemic)", 1.36),
]

Input COC(=O)C(C(=O)OC1CC2CCC(C1)N2C)c1ccccc1 (racemic) . Output log10(half-life): 0.68

Input CCOC(=O)C(C(=O)OC1CC2CCC(C1)N2C)c1ccccc1 (racemic) . Output log10(half-life): 0.61

Input CN1C2CCC1CC(OC(=O)C(C(=O)O)c1ccccc1)C2 (racemic) . Output log10(half-life): 2.54

----------
Test: Hydrolytic rate constants in aqueous buffered solution at pH 12, 37°C (HPLC)
Format: physicochemical
Conditions: 0.01 n naoh buffer; 0.01 N sodium hydroxide at pH 12.0, at 37°C; read-out: half-life (t 1/2)
observedProperty: half-life (min)
State just the number; it will be interpreted in min.

Worked set:
# compound, unitOfMeasure, observedMeasurement
records = [
    ("CCOC(=O)C(C(=O)OC1CC2CCC(C1)[N+]2(C)C)c1ccccc1 (racemic) [Compound 5]", "min", 0.85),
    ("COC(=O)C(C(=O)OC1CC2CCC(C1)N2C)c1ccccc1 (racemic) [Compound 1]", "min", 4.8),
]

Input CCOC(=O)C(C(=O)OC1CC2CCC(C1)N2C)c1ccccc1 (racemic) [Compound 2] . Output half-life: 4.08

Input CC(C)OC(=O)C(C(=O)OC1CC2CCC(C1)N2C)c1ccccc1 (racemic) [Compound 3] . Output half-life: 22.8

----------
Assay: Enzymatic hydrolytic cleavage rates in human plasma at 37°C (HPLC)
Format: in vitro ADME
Set-up: dose or concentration left out as unconfirmed
Conditions: human plasma at 37°C; read-out: half lives (t 1/2) (converted)
observedProperty: half-life (h)
State just the number; it will be interpreted in h.

# compound, observedMeasurement
data = [
    ("CN1C2CCC1CC(OC(=O)C(C(=O)OC1CCCCC1)c1ccccc1)C2 (racemic)", 270),
    ("C[N+]1(C)C2CCC1CC(OC(=O)C(C(=O)OC1CCCCC1)c1ccccc1)C2 (racemic)", 183),
    ("CC(C)OC(=O)C(C(=O)OC1CC2CCC(C1)N2C)c1ccccc1 (racemic)", 186),
    ("CCOC(=O)C(C(=O)OC1CC2CCC(C1)N2C)c1ccccc1 (racemic)", 77.4),
]

Now turn to the next compound.
Input CCOC(=O)C(C(=O)OC1CC2CCC(C1)[N+]2(C)C)c1ccccc1 (racemic) . Output half-life: 82.2

----------
Experiment: Enzymatic hydrolysis in rat liver homogenate at 37°C (HPLC)
Assay type: in vitro ADME, Sprague-Dawley rats
Settings: rat, liver homogenate, pH 7.4, 20% rat liver homogenate, pH 7.4, 37°C; read-out: t 1/2 in liver homogenate
observedProperty: half-life at 6000 µM (min)
State just the number; it will be interpreted in min.

Input CCOC(=O)C(C(=O)OC1CC2CCC(C1)[N+]2(C)C)c1ccccc1 (racemic) [Compound 5] . Output half-life at 6000 µM: 6.6
